Exercise: state measured EC10 for each of the compounds provided.
# Tested on: Daphnia magna
# Experimental details: Chronic reproduction toxicity test (OECD 211) with passive dosing
# Assay type: in vivo
# Assay conditions: 21-day reproduction inhibition; confidence interval in brackets

Completed entries (count: 3):
| Compound | EC10 |
| --- | --- |
| c1ccc2c(c1)ccc1[nH]c3ccccc3c12 [BCRB, 7H-benzo[c]carbazole] | 69.2 (39.7-111.8) nmol L^-1 |
| c1ccc2c(c1)ccc1oc3ccccc3c12 [BNF, benzo[b]naphtho[1,2-d]furan] | 4.17 (1.60-7.63) nmol L^-1 |
| c1ccc2c(c1)ccc1oc3ccc4ccccc4c3c12 [DNF, dinaphtho[2,1-b:1′,2′-d]furan] | 0.52 (0.18-1.03) nmol L^-1 |

Next up:
Recorded EC10 for c1ccc2c(c1)ccc1sc3ccccc3c12 [BNT, benzo[b]naphtho[1,2-d]thiophene] with Daphnia magna, please?
1.40 (0.49-3.10) nmol L^-1

Data provenance is paper PMC12080252.
